- Tested System: Human autotaxin enzyme (Homo sapiens)
- Construct: purchased R&D System
- Assay Procedure: Evaluation of autotaxin inhibitor, 18:0 Lyso PC / choline assay (Test Example 2)
- Assay type: biochemical
- Measurement Context: human autotaxin enzyme, 18:0 Lyso PC substrate, choline assay, room temperature 2 hours; read-out: Inhibitor activity (IC50)
Quantity Kind: IC50

Input: Indicate its recorded IC50; the compound in question is CC1(O)CN(C(=O)Cn2c(CCCC(F)(F)F)nc(-c3ccc(C(F)(F)F)cc3)cc2=O)C1 [Compound I-0320]
Output: 100 to 1000 nM

Input: Indicate its recorded IC50; the compound in question is COC(=O)Nc1cc(Cl)ccc1-c1cc(=O)n(CC(=O)NCCNS(C)(=O)=O)c(C)n1 [Compound I-0464]
Output: 10 to 100 nM

Input: Indicate its recorded IC50; the compound in question is O=C(Cn1c(CCCC(F)(F)F)nc(-c2ccc(Cl)cc2CO)cc1=O)NCC1(CO)CC1 [Compound I-0328]
Output: 10 to 100 nM

Input: Indicate its recorded IC50; the compound in question is O=C(Cn1c(CCCC(F)(F)F)nc(-c2ccc(C(F)(F)F)cc2)cc1=O)NCC(O)CO (stereo not shown) [Compound I-0323]
Output: 10 to 100 nM

Input: Indicate its recorded IC50; the compound in question is CCCCCc1nc(-c2ccc(Cl)cc2)cc(=O)n1CC(=O)NCc1ccccc1 [Compound I-0034]
Output: 100 to 1000 nM

Input: Indicate its recorded IC50; the compound in question is O=C(Cn1c(CCCC(F)(F)F)nc(-c2ccc(C(F)(F)F)cc2)cc1=O)N1CCC(OCCO)CC1 [Compound I-0354]
Output: 10 to 100 nM

Input: Indicate its recorded IC50; the compound in question is CC(C)(C)OC(=O)Cn1c(CCC(F)(F)F)nc(-c2ccc(Cl)cc2)cc1=O [Compound I-0216]
Output: 100 to 1000 nM

----------
- Tested System: Human autotaxin enzyme (Homo sapiens, UniProt Q13822)
- Construct: purchased R&D System
- Assay Procedure: Evaluation of autotaxin inhibitor, 18:0 Lyso PC / choline assay (Test Example 2)
- Format: biochemical
- Measurement Context: human autotaxin enzyme, 18:0 Lyso PC substrate, choline assay, room temperature 2 hours; read-out: Inhibitor activity (IC50)
Quantity Kind: IC50

Input: Indicate its recorded IC50; the molecule in question is N#CC1CCN(C(=O)Cn2c(CCCC(F)(F)F)nc(-c3ccc(C(F)(F)F)cc3)cc2=O)C1 (stereo not shown) [Compound I-0327]
Output: 10 to 100 nM

Input: Indicate its recorded IC50; the molecule in question is CS(=O)(=O)N1CCN(C(=O)Cn2c(CCCC(F)(F)F)nc(-c3ccc(C(F)(F)F)cc3)cc2=O)CC1 [Compound I-0359]
Output: 10 to 100 nM

Input: Indicate its recorded IC50; the molecule in question is CC(C)(C)C(=O)Nc1cc(Cl)ccc1-c1cc(=O)n(Cc2cccc(C(=O)Nc3ccnc(O)c3)c2)cn1 [Compound I-0493]
Output: ≥ 1000 nM

Input: Indicate its recorded IC50; the molecule in question is CCOCCc1nc(-c2ccc(Cl)cc2)cc(=O)n1CC(=O)NCC1(CO)CC1 [Compound I-0223]
Output: 100 to 1000 nM

Input: Indicate its recorded IC50; the molecule in question is COC(=O)Nc1cc(C#N)ccc1-c1cc(=O)n(CC(=O)NC(C)C)c(C)n1 [Compound I-0389]
Output: 10 to 100 nM

Input: Indicate its recorded IC50; the molecule in question is O=C(Cn1c(CCCC(F)(F)F)nc(-c2ccc(C(F)(F)F)cc2)cc1=O)N1CCC(O)(Cc2ccccc2)CC1 [Compound I-0369]
Output: 100 to 1000 nM

Input: Indicate its recorded IC50; the molecule in question is Cc1nc(-c2ccc(Cl)cc2NC(=O)C(C)(C)C)cc(=O)n1CC(=O)NC(C)(C)C [Compound I-0273]
Output: 10 to 100 nM
